Test system: Nucleic Acid
Measurement Notes: Binding affinity to F21T human telomeric DNA assessed as change in melting temperature at 1 uM by FRET assay
Format: nucleic-acid assay
Quantity Name: ΔTm (°C)

- CN(C)CCCNc1c2ccccc2nc2c1[nH]c1ccccc12: 10.4
- O=C(CCN1CCCC1)Nc1ccc(/C=C2\CCn3c2nc2cc(NC(=O)CCN4CCCC4)ccc2c3=O)cc1: 21.9
- O=C(CCN1CCCCC1)Nc1ccc(/C=C2\CCn3c2nc2ccc(NC(=O)CCN4CCCCC4)cc2c3=O)cc1: 17.6
- O=C(CCN1CCCCC1)Nc1ccc(/C=C2\CCn3c2nc2cc(NC(=O)CCN4CCCCC4)ccc2c3=O)cc1: 22
- O=C(CCN1CCCC1)Nc1ccc(/C=C2\CCn3c2nc2ccc(NC(=O)CCN4CCCC4)cc2c3=O)cc1: 17.6

* * *

Tested on: Nucleic Acid
Measurement Notes: Binding affinity to oligonucleotide HTG21 by florescence titration assay in presence of K+ solution
Assay type: nucleic-acid assay
Quantity Name: Kb

Consider the following illustrative entries.
* O=C(CCN1CCCC1)Nc1ccc(/C=C2\CCn3c2nc2ccc(NC(=O)CCN4CCCC4)cc2c3=O)cc1 | 7.2 10^6 M-1
* O=C(CCN1CCCCC1)Nc1ccc(/C=C2\CCn3c2nc2cc(NC(=O)CCN4CCCCC4)ccc2c3=O)cc1 | 9.8 10^6 M-1
* O=C(CCN1CCCCC1)Nc1ccc(/C=C2\CCn3c2nc2ccc(NC(=O)CCN4CCCCC4)cc2c3=O)cc1 | 8.1 10^6 M-1

Next item in the queue.
For O=C(CCN1CCCC1)Nc1ccc(/C=C2\CCn3c2nc2cc(NC(=O)CCN4CCCC4)ccc2c3=O)cc1 the molecule record lists Kb as 10.1 10^6 M-1

* * *

Tested on: Nucleic Acid
Measurement Notes: Binding affinity to F10T hairpin duplex DNA assessed as change in melting temperature at 1 uM by FRET assay
Format: nucleic-acid assay
Quantity Name: ΔTm (°C)

* O=C(CCN1CCCCC1)Nc1ccc(/C=C2\CCn3c2nc2ccc(NC(=O)CCN4CCCCC4)cc2c3=O)cc1 | 0.1
* CN(C)CCCNc1c2ccccc2nc2c1[nH]c1ccccc12 | 5.7

P: O=C(CCN1CCCC1)Nc1ccc(/C=C2\CCn3c2nc2cc(NC(=O)CCN4CCCC4)ccc2c3=O)cc1
Q: O=C(CCN1CCCCC1)Nc1ccc(/C=C2\CCn3c2nc2cc(NC(=O)CCN4CCCCC4)ccc2c3=O)cc1
R: O=C(CCN1CCCC1)Nc1ccc(/C=C2\CCn3c2nc2ccc(NC(=O)CCN4CCCC4)cc2c3=O)cc1
Problem: // ranking: key=ΔTm, reverse=True Please, when replying, give the labels in the order that was requested.
Result: R, P, Q
(R: 0.4 °C, P: 0.1 °C, Q: 0 °C)
